Origin of the recorded values: PubChem BioAssay (NCI)

- Test system: HS 578T breast
- assay: NCI-60 one-dose screen, 48 h (100 = growth as untreated, 0 = no growth, -100 = all killed)
- stated_conditions: 10 µM unless noted
The panel holds about 83,000 compounds, 20% with a hit somewhere; the sample as a whole holds those more often. The source made the active and inactive calls. The calls were made as follows: active = growth percent below 10; inactive = the rest.

compound	growth
O=S(=O)(Nc1ccc(I)c(Cl)c1)c1ccc(-c2cnc(C3CC3)o2)cc1	17.9% (inactive)
COc1cc2cc(Oc3ccc(NC(=O)Nc4cc(C(F)(F)F)cc(C(F)(F)F)c4)cc3)c(C)nc2cc1OCCN(C)C	101% (inactive)
Cc1ccc(S(=O)(=O)N/N=C/c2cn(-c3ccc(F)cc3)nc2-c2ccc(S(C)(=O)=O)cc2)cc1	107% (inactive)
CC[C@@](C)(NC(=O)C(C)(C)NC(=O)[C@@H](NC(=O)[C@@H]1CCCN1C(=O)C(C)(C)NC(=O)[C@H](CC(C)C)NC(=O)CNC(=O)C(C)(C)NC(=O)[C@@H](NC(=O)C(C)(C)NC(=O)[C@H](CCC(N)=O)NC(=O)[C@H](C)NC(=O)C(C)(C)NC(=O)[C@H](C)NC(=O)C(C)(C)NC(=O)[C@H](C)NC(=O)C(C)(C)NC(C)=O)C(C)C)C(C)C)C(=O)N[C@@H](CCC(N)=O)C(=O)N[C@@H](CCC(N)=O)C(=O)N[C@H](CO)CC1CCCCC1	46.6% [5 µM] (inactive)
O=C(COc1ccc(/C=C2\SC(=O)NC2=O)cc1)Nc1ccc(C(=O)/C=C/c2cc3ccccc3nc2Cl)cc1	78.8% (inactive)
O=C(O)CNS(=O)(=O)c1ccc(Oc2ccc(S(=O)(=O)NCC(=O)O)cc2)cc1	95.2% (inactive)
COc1ccc(/C=N/Nc2nc(N/N=C/c3ccc(OC)cc3O)nc(N3CCOCC3)n2)c(O)c1	77.7% (inactive)
CS(=O)(=O)c1ccc(-c2nn(-c3ccccc3)cc2/C=C/C(=O)c2ccc(Br)cc2)cc1	117% (inactive)
CC(=O)c1ccc(NC(=O)COc2ccc(C3SCC(=O)N3c3ccc(Br)cc3)cc2)cc1 (stereo unspecified)	100% (inactive)
Nc1nc(N)c2c(n1)NC(c1ccccc1)CC(c1ccc(Nc3nc(NCCO)nc(Nc4ccc(Cl)cc4)n3)cc1)=N2 (stereo unspecified)	79.9% (inactive)
CN1CCN(Cc2ccc(NC(=O)c3cncc(C#Cc4[nH]nc5ncncc45)c3)cc2C(F)(F)F)CC1	45.9% (inactive)
CN1C(=O)N(C)C2Nn3c(s/c(=C\c4ccccn4)c3=O)=NC21 (stereo unspecified)	113% (inactive)
O=C(Nc1cc(F)cc2cccnc12)c1cnc(N2CCOCC2)cn1	98.3% (inactive)
NCCN1CCN(c2nc(-c3ccccc3)nc3nc(-c4ccccc4)oc23)CC1	100% (inactive)
CS(=O)(=O)c1ccc2c(c1)c1c(n2C(=O)c2ccc(Cl)cc2)CCCC1	-0.806% (active)
C#CCOc1ccc(C(Nc2ccc(OC)cc2)c2nnnn2C2CCCCC2)cc1 (stereo unspecified)	95.2% (inactive)
